Consider the following sequences and their measured PBM binding z-score readings.
Tested on: RARg homodimer (NR concentration 270 nM)
ASSAY COMMENT: PBM binding z-score (relative to random genomic background probes); higher = stronger binding; sequences stand for … in GC…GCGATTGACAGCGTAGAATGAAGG
Write the number on its own, no unit after it.

> print(dat)
                             sequence           observable  observed.value
1  CGAACTAGGTCAGAACAGGACCGTGAAGGATGAT  PBM binding z-score            3.01
2  AACTCTAGGTAACCAAGTTCAGTGAATGCCGAAC  PBM binding z-score            0.32
3  ATCGAAAGGTCGAACGTGAGTATACCCACCCGAA  PBM binding z-score            3.79
4  ATATGTAGGTTAGCCGGGGTCATTCAGACTAGGC  PBM binding z-score            3.57
5  CAAACTAGGTCACGAAAGATCAAAGTCGAATGAC  PBM binding z-score            5.53

State the recorded PBM binding z-score for this entry: TCTGCTAGGTCAACGATTGTCAGCTAATCTGCTA
4.64

// returns reported PBM binding z-score for input ATATGTAGGTTATAGGGTCATTCAGTTTGCGCAT
3.26

----------
Tested on: PXR homodimer (NR concentration 270 nM)
ASSAY COMMENT: PBM binding z-score (relative to random genomic background probes); higher = stronger binding; sequences stand for … in GC…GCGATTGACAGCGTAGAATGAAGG
Classification by PBM binding z-score | ranges: lowest (below 0.09), middle (0.09 to below 1), highest (1 or more)

Would you please look over these solved cases?
> print(dat)
                             sequence    class
1  CGTCCAAGGTCAATGCTGGGTCAGTGAAAGCATT  highest
2  AGAATGAGGTTATTAATATCAGGGAATTGCGGTC   middle
3  CCTAGTTGGTCCGGAGGTCACACACCGGATATGA  highest
4  AGTCAAAGTTCATCTAAGTAACGTAAGATATGCT  highest
5  CCTACTGGACCATTCAGAGGTCATTGATCATATG  highest
6  AGAATGAGGTTTTACGTAGATCAGGGAAGAAAGT   lowest
7  TCTTGTAGATCAAGCAGGCTAAGAAAGCCTGAGT   lowest
8  CCTACTGGGCCATCAGGTCATTGCTATCAACGTT   middle

Hey, which category is CCTCGGAGGACAACAGGAGATCAGAGCTGCCAGA in, do you know?
lowest

Categorize the following entry: AATACATGGTCACTAGGCCAGAGTAGGTACGAAT
lowest

For this sequence, which bin applies? ATCTATAGGTAAGACTCAGTTCAGTGAAGAACGC
highest

Which band does TTACCAAGGTGAGCCGAGGTCGTTGATCCAACTC fall in?
middle

----------
Tested on: PPARg:RXRa IVT, anti-PPARg (NR concentration 270 nM, RXRa partner concentration 90 nM)
ASSAY COMMENT: PBM binding z-score (relative to random genomic background probes); higher = stronger binding; sequences stand for … in GC…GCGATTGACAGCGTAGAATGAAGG
Threshold rule: PBM binding z-score greater than or equal to 2 is condition met; below that, condition not met.

> print(dat)
                             sequence                             tested.system          class
1  CCTACTGGGCCAAAAAGGTCATTGAGGCCGATAA  PPARg:RXRa IVT, anti-PPARg (NR concentration 270 nM, RXRa partner concentration 90 nM)  condition met

Given CCGACTGGGACATAAGGTTACCATAAGCCAGCCC , state whether its PBM binding z-score is at least 2.
condition not met

Does the reported PBM binding z-score for TAGCCTAGGTCAGATCGGGCAAGTATACGCTATA fall at or above the 2 mark?
condition not met

Entry CCCTACGGGTCACTGACAGGTTATAGCATTTGGA : is its PBM binding z-score no less than 2?
condition met

Is it the case that GCTTACGGGTCACAGGTTATAGCATGAATAGAAT has PBM binding z-score reaching or exceeding 2?
condition met

Does PBM binding z-score meet or surpass 2 for AGTATGAGGTTACCAAAGATCAGGGAAACGCTTG ?
condition not met

Textbook exercise: given the entry GCTAGTTGGTCAGTAAAAGCTCACACACCGGTCG , state whether its PBM binding z-score is greater than or equal to 2.
condition not met

Would you say CCGACTGGGGCAAAGGTTGCCATACTCAGTACGA shows PBM binding z-score at minimum 2?
condition met

Confirm if PBM binding z-score reported for the sequence TCTAGCAGGCCACAGGGTCACTCAAGAGGTACGG is 2 or above.
condition met

Values were extracted from the supplement of paper PMC6555819.
